Source: patent US20240270821A1

Target: hGIPR (Homo sapiens)
Sequence (P48546 22-466): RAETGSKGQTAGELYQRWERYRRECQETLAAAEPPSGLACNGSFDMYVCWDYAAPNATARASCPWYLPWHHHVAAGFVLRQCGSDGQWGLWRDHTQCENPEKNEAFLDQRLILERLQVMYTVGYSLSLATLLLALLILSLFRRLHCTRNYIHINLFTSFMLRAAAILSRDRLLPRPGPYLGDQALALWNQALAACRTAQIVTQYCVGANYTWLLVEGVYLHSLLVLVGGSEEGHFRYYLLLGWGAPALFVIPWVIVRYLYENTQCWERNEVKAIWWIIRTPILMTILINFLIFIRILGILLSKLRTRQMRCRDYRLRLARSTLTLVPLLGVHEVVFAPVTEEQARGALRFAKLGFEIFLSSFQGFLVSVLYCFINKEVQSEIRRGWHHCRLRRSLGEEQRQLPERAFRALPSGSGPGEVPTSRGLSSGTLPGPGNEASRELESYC
Test: Functional cAMP activity in the presence of 1% HSA
Type: cell-based
Conditions: read-out: cAMP Rel EC50, hGIPR
Starred links: 1 amine or outer side, 2 acyl side, 3 side chain; linkers in the order of their positions; H or OH if unused. Non-standard residues stand in square brackets, D forms with d. Groups on a side chain read outwards from the residue. No end group written: not given here. *: point of attachment. C18 diacid = O=C(O)CCCCCCCCCCCCCCCCC(=O)*; αMePhe(2-F) = C[C@](N)(Cc1ccccc1F)C(=O)O; γGlu = O=C(O)[C@H](CCC(=O)[*:2])N[*:1]; αMe4Pal = C[C@](N)(Cc1ccncc1)C(=O)O; αMeY = C[C@](N)(Cc1ccc(O)cc1)C(=O)O; 4Pal = N[C@@H](Cc1ccncc1)C(=O)O; αMeL = CC(C)C[C@](C)(N)C(=O)O; αMeS = C[C@](N)(CO)C(=O)O; Orn = NCCC[C@H](N)C(=O)O; AEEA = NCCOCCOCC(=O)O; Aib = CC(C)(N)C(=O)O
endpoint name: pEC50
# reply with the number alone; pEC50 is -log10 of concentration in mol/L

Reference set (3 entries):
Give pEC50 for this entry on hGIPR (Homo sapiens): H-Y[Aib]QGT[αMePhe(2-F)]TSD[4Pal]SI[αMeL]LD[Orn]K([AEEA-γGlu-C18 diacid])AQ[αMe4Pal][Orn]FI[dE][αMeY]LIEGGPSSGDPPPEGTE-NH2 [Example 731]
8.90

Give pEC50 for this entry on hGIPR (Homo sapiens): H-Y[Aib]QGTFTSD[4Pal]SQ[αMeL]LDKK([AEEA-γGlu-C18 diacid])AQ[αMe4Pal]QFIE[αMeY]LIEGGPSSGAPPPSGS-NH2 [Example 855]
7.34

Give pEC50 for this entry on hGIPR (Homo sapiens): H-Y[Aib]QGTFTSDFS[Orn][αMeL]LDKK([AEEA-AEEA-γGlu-C18 diacid])AQ[Aib]AFIEYLLEGGPSSGAPPPGES-NH2 [Example 118]
7.20

Further cases:
Give pEC50 for this entry on hGIPR (Homo sapiens): H-Y[Aib]QGTFTSDFS[Orn][αMeL]LDKK([AEEA-γGlu-C18 diacid])AQ[Aib]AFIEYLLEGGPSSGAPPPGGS[AEEA]-NH2 [Example 66]
7.52

Give pEC50 for this entry on hGIPR (Homo sapiens): H-Y[Aib]QGT[αMePhe(2-F)]TSD[4Pal]SI[αMeL]LD[Orn]K([γGlu-γGlu-C18 diacid])AQ[αMe4Pal][Orn]FI[dE][αMeY]LIEGGPSSGEPPPEGTGE-NH2 [Example 688]
9.21

Give pEC50 for this entry on hGIPR (Homo sapiens): H-Y[Aib]QGT[αMePhe(2-F)]TSD[4Pal][αMeS]I[αMeL]LD[Orn]K([AEEA-γGlu-C18 diacid])AA[Aib]EFI[dE][αMeY]LIEGGPSSGAPPPSGTGQ-OH [Example 724]
8.97

Give pEC50 for this entry on hGIPR (Homo sapiens): H-Y[Aib]QGTFTSD[4Pal]SQ[αMeL]LDKK([γGlu-γGlu-C18 diacid])AQ[αMe4Pal]AFIE[αMe4Pal]LIEGGPSSGAPPPSGSEE-NH2 [Example 957]
7.60

Give pEC50 for this entry on hGIPR (Homo sapiens): Y[Aib]QGTFTSD[4Pal]SK[αMeL]LDKK([AEEA-γGlu-C18 diacid])AQ[Aib]AFIEYLIA[Aib]GESSGEPPPSGE-NH2 [Example 286]
7.94

Give pEC50 for this entry on hGIPR (Homo sapiens): H-Y[Aib]QGTFTSDFSK[αMeL]LDKK([AEEA-γGlu-C18 diacid])AQ[Aib]AFIEYLIEGGESSGAPPPSGS-NH2 [Example 215]
7.06

Give pEC50 for this entry on hGIPR (Homo sapiens): Y[Aib]QGTFTSD[4Pal]S[Orn][αMeL]LD[Orn]K([γGlu-γGlu-C18 diacid])AQ[αMe4Pal]QFIE[αMeY]LIEGGPSSGAPPPSGSEE-NH2 [Example 972]
7.52

Give pEC50 for this entry on hGIPR (Homo sapiens): H-Y[Aib]QGTFTSD[4Pal]SQ[αMeL]LD[Orn]K([γGlu-γGlu-C18 diacid])AQ[αMe4Pal]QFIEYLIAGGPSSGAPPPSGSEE-NH2 [Example 1005]
7.84
